Assay system: Cysteine protease ATG4B (Homo sapiens) (UniProt Q9Y4P1)
Sequence (Q9Y4P1 whole entry, looked up): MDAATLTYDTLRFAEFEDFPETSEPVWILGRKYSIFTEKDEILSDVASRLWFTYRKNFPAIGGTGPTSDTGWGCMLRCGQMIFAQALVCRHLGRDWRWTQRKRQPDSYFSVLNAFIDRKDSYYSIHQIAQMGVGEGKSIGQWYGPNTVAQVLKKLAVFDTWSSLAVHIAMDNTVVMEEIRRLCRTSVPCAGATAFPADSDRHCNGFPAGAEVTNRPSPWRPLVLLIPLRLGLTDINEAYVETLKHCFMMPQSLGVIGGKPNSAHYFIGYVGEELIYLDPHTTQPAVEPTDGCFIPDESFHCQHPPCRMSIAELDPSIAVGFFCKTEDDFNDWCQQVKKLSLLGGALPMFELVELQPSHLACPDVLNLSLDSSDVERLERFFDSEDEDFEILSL
Experimental protocol: ATG4B protease inhibitors, primary screen, biochemical, fluorescence, uHTS (AID 504462)
Experimental parameters: ATG4B cleavage of LC3-PLA2, NBD-HPC fluorescence, 1 h; at 8.33 µM; stronger effect = higher value
Hit rate of the full screen: of about 340,000 compounds, about 1,700 (0.5%) were called active. The list comes from a sample in which actives are over-represented; it also holds close analogues and randomly drawn compounds.
Assay readout: inhibition (%)
Response body: numeric value in %, unit text excluded.

The compound identified as Cc1ccc(CNC(=O)CCN2C(=O)[C@@H]3Cc4ccccc4CN3C2=O)cc1 registered its inhibition at 2.31

The compound identified as O=C(COC(=O)c1cc(=O)[nH]c2ccccc12)Nc1nc(-c2cccc(Br)c2)cs1 registered its inhibition at -32.4

The compound identified as CCOC(=O)c1ccc(NNC(C)=O)c([N+](=O)[O-])c1 registered its inhibition at -7.65

The compound identified as CCN1CCN(C(=O)c2ccc(CN(c3ccc(C)c(C)c3)S(C)(=O)=O)cc2)CC1 registered its inhibition at -3.29

The compound identified as CCOn1c(SC(C)C)nc2ccccc2c1=O registered its inhibition at 7.51

The compound identified as CCOc1ccccc1Nc1ccc(C(=O)O)cc1[N+](=O)[O-] registered its inhibition at -16.2

The compound identified as CC(Sc1nnc(-c2ccccc2F)n1C1CC1)C(N)=O (stereo not drawn) registered its inhibition at -8.94

The compound identified as CCC(=O)c1cc2c(cc1NC(=O)c1cccs1)OCCO2 registered its inhibition at -18.9

The compound identified as O=C(Nc1cccn(Cc2ccccc2Cl)c1=O)NC1CCCCC1 registered its inhibition at -3.28

The compound identified as CC(C)(C)C1CCc2c(sc3nc(SCC(N)=O)nc(N)c23)C1 (stereo not drawn) registered its inhibition at 42.8

The compound identified as O=C(CSc1ncnc2c1oc1ccccc12)NC1CCCC1 registered its inhibition at -1.46

The compound identified as Cc1ccc(Nc2ccc(C(N)=O)cc2[N+](=O)[O-])cc1 registered its inhibition at 66.7

The compound identified as O=S(=O)(Oc1ccccc1C(=S)N1CCOCC1)c1ccc(Cl)cc1 registered its inhibition at 2.25

The compound identified as O=C1CSC(=S)N1c1ccc(Cl)c(Cl)c1 registered its inhibition at 4.82

The compound identified as CCn1c(Cc2ccc(OC)cc2)nnc1SCC(=O)Nc1ccc(N2CCOCC2)cc1 registered its inhibition at -5.02

The compound identified as Cc1nn(CC(=O)Nc2ccc(N(C)C)cc2)c(C)c1[N+](=O)[O-] registered its inhibition at -1.82

The compound identified as NC(=O)c1ccc(Nc2ccc3c(c2)CCC3)c([N+](=O)[O-])c1 registered its inhibition at 29.8

The compound identified as COCC(C)n1c(SCC(=O)NC2CCCCC2C)nc2ccccc2c1=O (stereo not drawn) registered its inhibition at -0.82

The compound identified as Cc1nc(SCC(=O)N2CC(=O)Nc3ccccc32)c2c(C)c(C)sc2n1 registered its inhibition at 26.7

The compound identified as CCOC(=O)C(C)Sc1nc2ccccc2c(=O)n1CC1CCCCC1 (stereo not drawn) registered its inhibition at 41.4

The compound identified as CC(=O)c1c(C)n(-c2ccc(N(C)C)cc2)c2ccc(OCC(N)=O)cc12 registered its inhibition at 82.1

The compound identified as Cc1nc2sc3c(c2c(=O)n1NC(=O)CCl)CCCC3 registered its inhibition at -3.09

The compound identified as Cc1nc(SCC(=O)N2CCc3ccccc3C2)c2c(C)c(C)sc2n1 registered its inhibition at 71.6

The measured values listed here are drawn from PubChem BioAssay AID504462.
